test: xn = mol fraction of the nth substance listed; conditions: 303.2 K, Ring tensiometer, x2 = 0.3
parameter: surface tension liquid-gas (mN/m)

[ask] I would be grateful if you could share the reported surface tension liquid-gas for OCC(O)CO [glycerol] + CCCO .
[reply] 29.7

[ask] I would be grateful if you could share the reported surface tension liquid-gas for OCC(O)CO [glycerol] + CCCCO .
[reply] 26.2

[ask] I would be grateful if you could share the reported surface tension liquid-gas for OCC(O)CO [glycerol] + CC(C)O .
[reply] 28.5

[ask] I would be grateful if you could share the reported surface tension liquid-gas for OCC(O)CO [glycerol] + CCO .
[reply] 35.9

----------
assay: xn = mol fraction of the nth substance listed; settings: 333.2 K, Ring tensiometer, x2 = 0.7
parameter: surface tension liquid-gas (mN/m)

[ask] I would be grateful if you could share the reported surface tension liquid-gas for OCC(O)CO [glycerol] + CCCO .
[reply] 24

[ask] I would be grateful if you could share the reported surface tension liquid-gas for OCC(O)CO [glycerol] + CC(C)O .
[reply] 22.1

[ask] I would be grateful if you could share the reported surface tension liquid-gas for OCC(O)CO [glycerol] + CCCCO .
[reply] 23.2

[ask] I would be grateful if you could share the reported surface tension liquid-gas for OCC(O)CO [glycerol] + CCO .
[reply] 22.7

----------
test: xn = mol fraction of the nth substance listed; conditions: 323.2 K, Ring tensiometer, x2 = 0.9
parameter: surface tension liquid-gas (mN/m)

[ask] I would be grateful if you could share the reported surface tension liquid-gas for OCC(O)CO [glycerol] + CCCCO .
[reply] 22.7

[ask] I would be grateful if you could share the reported surface tension liquid-gas for OCC(O)CO [glycerol] + CCCO .
[reply] 22.5

[ask] I would be grateful if you could share the reported surface tension liquid-gas for OCC(O)CO [glycerol] + CCO .
[reply] 22

[ask] I would be grateful if you could share the reported surface tension liquid-gas for OCC(O)CO [glycerol] + CC(C)O .
[reply] 20

----------
test: xn = mol fraction of the nth substance listed; settings: 303.2 K, Ring tensiometer, x2 = 0.4
parameter: surface tension liquid-gas (mN/m)

[ask] I would be grateful if you could share the reported surface tension liquid-gas for OCC(O)CO [glycerol] + CCO .
[reply] 31.6

[ask] I would be grateful if you could share the reported surface tension liquid-gas for OCC(O)CO [glycerol] + CCCO .
[reply] 27.9

[ask] I would be grateful if you could share the reported surface tension liquid-gas for OCC(O)CO [glycerol] + CC(C)O .
[reply] 26.2

[ask] I would be grateful if you could share the reported surface tension liquid-gas for OCC(O)CO [glycerol] + CCCCO .
[reply] 26

----------
test: xn = mol fraction of the nth substance listed; settings: 333.2 K, Ring tensiometer, x2 = 0.2
parameter: surface tension liquid-gas (mN/m)

[ask] I would be grateful if you could share the reported surface tension liquid-gas for OCC(O)CO [glycerol] + CCO .
[reply] 40.5

[ask] I would be grateful if you could share the reported surface tension liquid-gas for OCC(O)CO [glycerol] + CCCCO .
[reply] 26.7

[ask] I would be grateful if you could share the reported surface tension liquid-gas for OCC(O)CO [glycerol] + CCCO .
[reply] 32.2

[ask] I would be grateful if you could share the reported surface tension liquid-gas for OCC(O)CO [glycerol] + CC(C)O .
[reply] 32.2

----------
assay: xn = mol fraction of the nth substance listed; settings: 323.2 K, Ring tensiometer, x2 = 0.7
parameter: surface tension liquid-gas (mN/m)

[ask] I would be grateful if you could share the reported surface tension liquid-gas for OCC(O)CO [glycerol] + CCCO .
[reply] 24.5

[ask] I would be grateful if you could share the reported surface tension liquid-gas for OCC(O)CO [glycerol] + CCCCO .
[reply] 24

[ask] I would be grateful if you could share the reported surface tension liquid-gas for OCC(O)CO [glycerol] + CC(C)O .
[reply] 22.5

[ask] I would be grateful if you could share the reported surface tension liquid-gas for OCC(O)CO [glycerol] + CCO .
[reply] 23.6

----------
experiment: xn = mol fraction of the nth substance listed; conditions: 333.2 K, Ring tensiometer, x2 = 0.3
parameter: surface tension liquid-gas (mN/m)

[ask] I would be grateful if you could share the reported surface tension liquid-gas for OCC(O)CO [glycerol] + CCO .
[reply] 35

[ask] I would be grateful if you could share the reported surface tension liquid-gas for OCC(O)CO [glycerol] + CCCCO .
[reply] 25.3

[ask] I would be grateful if you could share the reported surface tension liquid-gas for OCC(O)CO [glycerol] + CC(C)O .
[reply] 27.2

[ask] I would be grateful if you could share the reported surface tension liquid-gas for OCC(O)CO [glycerol] + CCCO .
[reply] 28.5

----------
assay: xn = mol fraction of the nth substance listed; conditions: 313.2 K, Ring tensiometer, x2 = 0.7
parameter: surface tension liquid-gas (mN/m)

[ask] I would be grateful if you could share the reported surface tension liquid-gas for OCC(O)CO [glycerol] + CCCO .
[reply] 25

[ask] I would be grateful if you could share the reported surface tension liquid-gas for OCC(O)CO [glycerol] + CCO .
[reply] 24.5

[ask] I would be grateful if you could share the reported surface tension liquid-gas for OCC(O)CO [glycerol] + CC(C)O .
[reply] 23

[ask] I would be grateful if you could share the reported surface tension liquid-gas for OCC(O)CO [glycerol] + CCCCO .
[reply] 24.8

----------
assay: xn = mol fraction of the nth substance listed; settings: 303.2 K, Ring tensiometer, x2 = 0.6
parameter: surface tension liquid-gas (mN/m)

[ask] I would be grateful if you could share the reported surface tension liquid-gas for OCC(O)CO [glycerol] + CC(C)O .
[reply] 24.2

[ask] I would be grateful if you could share the reported surface tension liquid-gas for OCC(O)CO [glycerol] + CCO .
[reply] 27.1

[ask] I would be grateful if you could share the reported surface tension liquid-gas for OCC(O)CO [glycerol] + CCCO .
[reply] 26.1

[ask] I would be grateful if you could share the reported surface tension liquid-gas for OCC(O)CO [glycerol] + CCCCO .
[reply] 25.4

----------
details: 303.2 K, Ring tensiometer
parameter: surface tension liquid-gas (mN/m)

[ask] I would be grateful if you could share the reported surface tension liquid-gas for CC(C)O [propan-2-ol] .
[reply] 20.7

[ask] I would be grateful if you could share the reported surface tension liquid-gas for CCCO [propan-1-ol] .
[reply] 22.9

[ask] I would be grateful if you could share the reported surface tension liquid-gas for CCCCO [butan-1-ol] .
[reply] 23.8

I: CCO [ethanol]
II: OCC(O)CO [glycerol]
[ask] Which numeric surface tension liquid-gas is bigger, that of I or that of II ? Write down the label attached to your selection.
[reply] II
(II: 62.4 mN/m, I: 21.4 mN/m)

----------
conditions: 293.2 K, Ring tensiometer
parameter: surface tension liquid-gas (mN/m)

[ask] I would be grateful if you could share the reported surface tension liquid-gas for CCCCO [butan-1-ol] .
[reply] 24.7

[ask] I would be grateful if you could share the reported surface tension liquid-gas for CC(C)O [propan-2-ol] .
[reply] 21.4

[ask] I would be grateful if you could share the reported surface tension liquid-gas for CCCO [propan-1-ol] .
[reply] 23.7

1: OCC(O)CO [glycerol]
2: CCO [ethanol]
[ask] // which entry reports the smaller surface tension liquid-gas, 1 or 2 ? Write down the label attached to your selection.
[reply] 2

----------
test: xn = mol fraction of the nth substance listed; settings: 293.2 K, Ring tensiometer, x2 = 0.8
parameter: surface tension liquid-gas (mN/m)

[ask] I would be grateful if you could share the reported surface tension liquid-gas for OCC(O)CO [glycerol] + CCCO .
[reply] 25.3

[ask] I would be grateful if you could share the reported surface tension liquid-gas for OCC(O)CO [glycerol] + CCCCO .
[reply] 25.2

[ask] I would be grateful if you could share the reported surface tension liquid-gas for OCC(O)CO [glycerol] + CC(C)O .
[reply] 22.8

[ask] I would be grateful if you could share the reported surface tension liquid-gas for OCC(O)CO [glycerol] + CCO .
[reply] 24.9

----------
test: xn = mol fraction of the nth substance listed; details: 323.2 K, Ring tensiometer, x2 = 0.1
parameter: surface tension liquid-gas (mN/m)

[ask] I would be grateful if you could share the reported surface tension liquid-gas for OCC(O)CO [glycerol] + CCCCO .
[reply] 32.7

[ask] I would be grateful if you could share the reported surface tension liquid-gas for OCC(O)CO [glycerol] + CC(C)O .
[reply] 43.9

[ask] I would be grateful if you could share the reported surface tension liquid-gas for OCC(O)CO [glycerol] + CCO .
[reply] 51.5

[ask] I would be grateful if you could share the reported surface tension liquid-gas for OCC(O)CO [glycerol] + CCCO .
[reply] 40.9

----------
assay: xn = mol fraction of the nth substance listed; details: 303.2 K, Ring tensiometer, x2 = 0.5
parameter: surface tension liquid-gas (mN/m)

[ask] I would be grateful if you could share the reported surface tension liquid-gas for OCC(O)CO [glycerol] + CCCO .
[reply] 26.9

[ask] I would be grateful if you could share the reported surface tension liquid-gas for OCC(O)CO [glycerol] + CC(C)O .
[reply] 25.1

[ask] I would be grateful if you could share the reported surface tension liquid-gas for OCC(O)CO [glycerol] + CCCCO .
[reply] 25.7

[ask] I would be grateful if you could share the reported surface tension liquid-gas for OCC(O)CO [glycerol] + CCO .
[reply] 28.5
